The measurements presented in this section are drawn from PubChem BioAssay (NCATS).

tested on: WaGa; test: qHTS assay to identify novel small-molecules to repurpose for Merkel cell carcinoma treatment (AID 1296009); settings: MCC and control cell lines, CellTiter-Glo viability, 72 h; series mostly up to 46 µM; also: nearly all actives have a fitted effect of over 60% in size
Records with an inconclusive call do not appear. Active and inactive are the calls of the source. Calls follow the shape of the dose curve; as a rule, active = well fitted inhibition curve with a large enough effect; inconclusive = small, poorly fitted or top-dose-only effect; inactive = flat fitted curve, though single readings scatter.
Labels: active, inactive

                                   molecule  label_value
0             Oc1ccc(C2=Cc3ccc(O)cc3OC2)cc1       active
1  CCOC(=O)O[C@]1(C(=O)OCCl)CC[C@@H]2[C@H]3CCC4=CC(=O)C=C[C@]4(C)[C@@H]3[C@@H](O)C[C@@]21C     inactive
2  C[N+]1(C)[C@@H]2CC(OC(=O)[C@H](CO)c3ccccc3)C[C@H]1[C@H]1O[C@@H]12 (stereo partly drawn)     inactive
3           CCn1cc(C(=O)O)c(=O)c2ccc(C)nc21     inactive
4    Cc1cccc(C)c1OCC(C)N (stereo not drawn)     inactive
5   CC(C)(C)COc1ccc(-n2cc(C(=O)O)cn2)cc1C#N     inactive
6               CCc1ccc(C=C2SC(=S)NC2=O)cc1     inactive
7  O=c1cc(-c2cccc3c2Sc2ccccc2S3)oc(N2CCOCC2)c1     inactive

---

Consider the following compounds and their measured Potency readings.
assay: qHTS of pediatric cancer cell lines to identify multiple opportunities for drug repurposing: Primary screen for SK-N-MC cells (AID 1347093); details: SK-N-MC viability, CellTiter-Glo luminescence, 48 h; series mostly up to 46 µM; also: potency is read from the fitted curve at half-maximal effect
Records with an inconclusive call do not appear. The source made the active and inactive calls. The call rests on the fitted dose curve; in most records, active means well fitted cell-killing curve with a large enough effect; inconclusive means small, poorly fitted or top-dose-only effect; inactive means no such curve, though single readings can be large or run the other way.
Result Type: Potency

In [3]: df
Out[3]:
                                   compound  result_type            result
0  Cc1c(O)cccc1C(=O)N[C@@H](CSc1ccccc1)[C@H](O)CN1C[C@H]2CCCC[C@@H]2C[C@@H]1C(=O)NC(C)(C)C      Potency  16.6 µM (active)
1  COC1CCC(N(C(=O)C2CCC(C)CC2)c2cc(C3=CCCCC3)sc2C(=O)O)CC1 (stereo not drawn)      Potency  23.5 µM (active)
2  CC(C)(C)OC(=O)N[C@H]1CCCCCC=C[C@@H]2C[C@@]2(C(=O)NS(=O)(=O)C2CC2)NC(=O)[C@@H]2C[C@@H](OC(=O)N3Cc4cccc(F)c4C3)CN2C1=O      Potency  29.6 µM (active)

---

Assay: Quantitative High-Throughput drug screen in 47 multiple myeloma cell lines against the NCATS MIPE library collection: KMS28PE_JCRB cell viability assay (AID 1918983); also: nearly all actives have a fitted effect of over 35% in size
Conditions: KMS28PE multiple myeloma viability, CellTiter-Glo ATP, 48 h; series mostly up to 45.8 µM
Source text: PI: Beverly A. Mock Ph.D. Laboratory of Cancer Biology and Genetics, Center for Cancer Research, National Cancer Institute, National Institute of Health, Bethesda, Maryland […] 5; Detector; 425V; Luminescence; Viewlux PerkinElmer. […] 1. […] Briefly, the corresponding myeloma cell lines were screened in 1,536-well plates with 500 cells, 5-uL per well for inhibition of cell viability (assessed by measuring ATP levels with CellTiterGlo). […]
Results filed as inconclusive are left out. Active and inactive are the calls of the source. The call rests on the fitted dose curve; in most records, active means well fitted cell-killing curve with a large enough effect; inconclusive means small, poorly fitted or top-dose-only effect, or effect the other way; inactive means no such curve, though single readings can be large or run the other way.
Possible outcomes: active, inactive

                                   molecule  label_value
0   CC(C)(C)COc1ccc(-n2cc(C(=O)O)cn2)cc1C#N     inactive
1  C[C@H](NC(=O)c1sccc1OCc1ccc(Cl)cc1)c1ccccc1       active
2  CS(=O)(=O)N(Cc1ccco1)CC(O)Cn1c2ccccc2c2ccccc21 (stereo unspecified)       active
3  CCNc1cc(NC2CCC(O)CC2)nc(Nc2ccc3c(ccn3Cc3ccccc3)c2)n1 (stereo unspecified)       active
4  N#C[C@H]1C[C@H]2C[C@@H]2N1C(=O)[C@@H](N)C12CC3CC(CC(O)(C3)C1)C2     inactive
5  COc1cc2ncnc(-n3nc(-c4ccccn4)nc3N)c2cc1OC       active

---

Assay: qHTS of pediatric cancer cell lines to identify multiple opportunities for drug repurposing: Primary screen for TC32 cells (AID 1347089); also: % is scaled to controls: 0 for no effect and ±100 for the full control effect; nearly all actives have a fitted effect of over 60% in size
Settings: TC32 Ewing sarcoma viability, CellTiter-Glo luminescence, 48 h; series mostly up to 45.8 µM
Description: Drug repurposing or repositioning has been offered as a strategy for drug development in oncology programs. […] [1] Shen, M et al. Quantitative high-throughput phenotypic screening of pediatric cancer cell lines identifies multiple opportunities for drug repurposing. […] Cells were assayed in growth media at a density of 500-1,000 cells/well. […] After a 15min incubation at room temperature, samples were analyzed for luminescence intensity using a ViewLux High-throughput CCD imager equipped with clear filters.
Records with an inconclusive call do not appear. The source made the active and inactive calls. The call rests on the fitted dose curve; in most records, active means well fitted cell-killing curve with a large enough effect; inconclusive means small, poorly fitted or top-dose-only effect; inactive means flat fitted curve, though single readings scatter.
Result Type: outcome

>>> df
                                 smiles_str  result_type    result
0                     O=C(O)Cc1cccc2ccccc12      outcome  inactive
1                   CC=CC(=O)N(CC)c1ccccc1C      outcome  inactive
2  Cc1ccc(Nc2cc(-c3cccc(N4C(=O)c5ccccc5C4=O)c3)ncn2)cc1NS(C)(=O)=O      outcome  inactive

---

tested on: NIH3T3; experiment: Cytotoxic Profiling of Annotated Libraries Using Quantitative High-Throughput Screening (AID 1296008); details: Five cell lines viability, CellTiter-Glo ATP luminescence, 48-72 h; stronger effect = lower value; also: nearly all actives have a fitted effect of over 60% in size; as to max response: % is scaled to controls: 0 for no effect and ±100 for the full control effect
Records with an inconclusive call do not appear.
# Lookup of reported max response keyed by entry
Result Type: max response (%)

Smiles Str	Tested On	Result Type	Number
NC(=O)c1cccc2[nH]c(-c3ccc([C@H]4CCCN4)cc3F)nc12	NIH3T3	max response	0.71
CCN(CC)CCOc1ccc(C(=C(Cl)c2ccccc2)c2ccccc2)cc1	NIH3T3	max response	2.62
O=c1cc(-c2ccccc2)oc2cc(O)c(O)c(O)c12	NIH3T3	max response	-19.1
N#CC(=C(N)Sc1ccccc1N)C(C#N)=C(N)Sc1ccccc1N	NIH3T3	max response	-4.19
Cc1c[nH]c(C=C2C(=O)Nc3ccccc32)c1CCC(=O)O	NIH3T3	max response	-18.5
CC[C@H]1OC(=O)[C@H](C)C(=O)[C@H](C)[C@@H](O[C@H]2O[C@H](C)C[C@H](N(C)C)[C@@H]2O)[C@](C)(OC)C[C@@H](C)C(=O)[C@H](C)[C@H]2N(CCCCn3cnc(-c4cccnc4)c3)C(=O)O[C@]12C	NIH3T3	max response	-10.2
CC(C)[C@H](CO)Nc1nc(Nc2ccc(C(=O)O)c(Cl)c2)c2ncn(C(C)C)c2n1	NIH3T3	max response	-1.87

---

tested on: KB-3-1; assay: Cytotoxic Profiling of Annotated Libraries Using Quantitative High-Throughput Screening (AID 1296008); conditions: Five cell lines viability, CellTiter-Glo ATP luminescence, 48-72 h; also: nearly all actives have a fitted effect of over 60% in size
Inconclusive results are not listed. Active and inactive are the calls of the source. Calls follow the shape of the dose curve; as a rule, active = well fitted inhibition curve with a large enough effect; inconclusive = small, poorly fitted or top-dose-only effect; inactive = flat fitted curve, though single readings scatter.
Classes used: y for active, n for inactive

>>> df
                                   compound  label_value
0  CC(C)(C)c1cc(C(=O)O)c(NC(=O)Nc2ccc3[nH]ncc3c2)s1            n
1                  Cc1cnc(C(=O)O)c[n+]1[O-]            n
2  COc1ccc(-c2nc(N3CCOCC3)c3sc(CN(C)c4ncc(C(=O)NO)cn4)cc3n2)cn1            y
3  O=C(O)c1ccc(-c2c[nH]c3ncc(-c4ccccc4)cc23)cc1C1CCCC1            n
4  COc1cc2c(cc1OC)CN(CCc1ccc(NC(=O)c3cc(OC)c(OC)cc3NC(=O)c3cnc4ccccc4c3)cc1)CC2            n
5  CCOC1OC(=O)C[C@H]1NC(=O)[C@@H]1CCCN1C(=O)[C@@H](NC(=O)c1ccc(N)c(Cl)c1)C(C)(C)C (some centres undefined)            n
6  CO[C@@H](C(=O)N1Cc2[nH]nc(NC(=O)c3ccc(N4CCN(C)CC4)cc3)c2C1)c1ccccc1            y
7  CO[C@H]1C=CC=C(C)C(=O)NC2=CC(=O)C(NCCN(C)C)=C(C[C@@H](C)C[C@H](OC)[C@@H](O)[C@@H](C)C=C(C)[C@@H]1OC(N)=O)C2=O            y
8  CC(=O)N(C)C1(c2ccccc2)CCN(CCC[C@]2(c3ccc(Cl)c(Cl)c3)CCCN(C(=O)c3ccccc3)C2)CC1            y

---

cell viability, % of control (lower = more cytotoxic) values by entry
assay: High-throughput drug toxicity screening in the BPDCN cell line Gen2.2 (AID 1224824); settings: Gen2.2 BPDCN cells; at 45.8 µM (top of the series) unless noted;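 also: cells exposed to compounds for 48 h before reading; 100% = DMSO and 0% = bortezomib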
Result Type: cell viability, % of control (lower = more cytotoxic) (%)

Molecule	Number
CN(C)Cc1cccc(N=C(c2ccccc2)c2c(O)[nH]c3cc(C(=O)N(C)C)ccc23)c1	6.16
CN[C@@H](C)C(=O)N[C@H]1CN(C(=O)CC(C)C)CC[C@H]2CC[C@@H](C(=O)NC(c3ccccc3)c3ccccc3)N2C1=O	19.5
CC(C)(C)COc1ccc(-n2cc(C(=O)O)cn2)cc1C#N	112
O=C(NC1CCOCC1)c1ccc(-c2cc(-c3cn[nH]c3-c3ccccn3)ccn2)cc1	724
CCNc1cc(NC2CCC(O)CC2)nc(Nc2ccc3c(ccn3Cc3ccccc3)c2)n1 (stereo not drawn)	21.8
COC(=O)C1=CO[C@@H](O)[C@@H]2C(CO)=CC[C@@H]12	17.3
CC(C)OC(=O)CCCC=CC[C@@H]1[C@H](C=C[C@@H](O)COc2cccc(C(F)(F)F)c2)[C@H](O)C[C@@H]1O	286
CC(C)C(C)C=CC(C)C1CCC2C3=CC=C4CC(O)CCC4(C)C3CCC21C (stereo not drawn)	136
CC1(C)CCC2=C(O1)c1ccccc1C(=O)C2=O	4.24
Cc1nc(N)sc1-c1ccnc(Nc2ccc(N3CCOCC3)cc2)n1	33.6
C[C@H]1[C@H](NC(=O)C(=NOC(C)(C)C(=O)O)c2csc(N)n2)C(=O)N1S(=O)(=O)O	120
COc1ccc(-c2oc3c(CC=C(C)C)c(OC4O[C@H](CO)[C@@H](O)[C@H](O)[C@@H]4O)cc(O)c3c(=O)c2OC2O[C@@H](C)[C@H](O)[C@@H](O)[C@@H]2O)cc1 (stereo partly drawn)	68.1
O=c1ccn([C@@H]2O[C@H](CO)[C@H](O)[C@H]2O)c(=O)[nH]1	90
